Test system: MARIMO;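 further: after 48 h exposure read by CellTiter-Glo luminescence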
MEASUREMENT NOTES: cell viability relative to vehicle control; higher = less cytotoxic
ASSAY CONTEXT: 10 µM; SRSF2 genotype: SRSF2 P95H/wt
ENDPOINT NAME: cell viability
Note: a bare number is incomplete; add the unit.

Use these answered entries as a reference point.
>>> assay_value("Cc1cc(O)c(C(=O)N[C@@H](C(=O)N[C@@H]2C(=O)N3C(C(=O)O)=C(CSc4nnnn4C)CS[C@H]23)c2ccc(O)cc2)cn1 [Cefpiramide sodium]")
"109%"
>>> assay_value("Nc1cc(F)ccc1NC(=O)/C=C/c1cnn(C/C=C/c2ccccc2)c1")
"77.8%"
>>> assay_value("O=C(/C=C/c1ccc(O)c(O)c1/C=C/c1ccc(O)c(O)c1)O[C@H](Cc1ccc(O)c(O)c1)C(=O)O [Salvianolic acid A]")
"86.4%"
>>> assay_value("COc1ccc2c(c1O)-c1c(O)c(OC)cc3c1[C@H](C2)[N+](C)(C)CC3 [Magnoflorine]")
"98%"
>>> assay_value("COc1cc2ncnc(Nc3cccc(Cl)c3)c2cc1OC [AG-1478 (Tyrphostin AG-1478)]")
"81.7%"
>>> assay_value("CC1(C)CCCC2(C)C1CCC1(C)OC(=O)CC12 (centres undefined) [Sclareolide (Norambreinolide)]")
"95.2%"
>>> assay_value("C[C@@H](N)[C@H]1CC[C@H](C(=O)Nc2ccncc2)CC1")
"93.7%"
>>> assay_value("CC(C)=CCC[C@](C)(O)[C@H]1CC[C@]2(C)[C@@H]1[C@H](O)C[C@@H]1[C@@]3(C)CC[C@H](O[C@@H]4O[C@H](CO)[C@@H](O)[C@H](O)[C@H]4O[C@@H]4O[C@H](CO)[C@@H](O)[C@H](O)[C@H]4O)C(C)(C)[C@@H]3CC[C@]12C [20S-Ginsenoside Rg3]")
"108%"

Q: Endpoint output: cell viability of FC(F)(F)c1ccc(/C=C/c2nc(COc3ccc(CCCCn4ccnn4)cc3)co2)cc1 [Mubritinib (TAK 165)] . Value?
A: 67.2%

Q: Record request: cell viability value, item COc1ccc(C[C@@H]2c3cc(Oc4cc(C[C@@H]5c6cc(O)c(OC)cc6CCN5C)ccc4O)c(OC)cc3CCN2C)cc1 [Isoliensinine]
A: 10.2%

Q: Requested field: cell viability. Item: COc1ccc(-c2oc3c(CC=C(C)C)c(O[C@@H]4O[C@H](CO)[C@@H](O)[C@H](O)[C@H]4O)cc(O)c3c(=O)c2O[C@@H]2O[C@@H](C)[C@H](O)[C@@H](O)[C@H]2O[C@@H]2OC[C@@H](O)[C@H](O)[C@H]2O)cc1 [Epmedin B]
A: 105%

Q: Please look up its cell viability: COc1ccccc1C(=O)Nc1cc2c(cc1N1CCCC1)n(C)c(=O)n2C
A: 84.1%

Q: Param item = CC(=O)c1ccc2c(c1)c1cc(C(C)=O)ccc1n2CCNC(C)C ; retrieve measured cell viability.
A: 5.2%

Q: Requested field: cell viability. Item: CC1CCN(CC[C@H]2CCCN2S(=O)(=O)c2cccc(O)c2)CC1
A: 97.8%

---

System: MARIMO;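 further: after 48 h exposure read by CellTiter-Glo luminescence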
MEASUREMENT NOTES: cell viability relative to vehicle control; higher = less cytotoxic
ASSAY CONTEXT: 10 µM; SRSF2 genotype: SRSF2 wt/wt
cell viability for assorted compounds

Q: Give MARIMO cell viability for OC[C@H]1O[C@@H](c2ccc(F)c(Cc3cc4ccccc4s3)c2)[C@H](O)[C@@H](O)[C@@H]1O
A: 95.8%
